# credit: ChEMBL document CHEMBL4513216

Readings of INHIBITION for the listed molecules
# Tested on: Plasmodium berghei
# protocol-text: Screen against P. berghei liver stage (PbLuc), transformed with Luciferase, at 10uM
# Assay type: functional, HepG2
# condition-parameters: tested at 10 uM
Screen size: about 69,000 compounds; about 8,600 (12%) showed an effect of 50% or more. The list comes from a sample in which strong results are over-represented; it also holds close analogues and randomly drawn compounds.
// return numeric value only (unit: %, not printed)

molecule: CC(=O)N1CCC2(CC1)CC(N1CCOCC1)c1ccc(C)cc12 (stereo unspecified)
experimental-target: Plasmodium berghei
recorded-endpoint: INHIBITION
measured-result: -39.2
--
molecule: CC(C(=O)N1CCN(c2ncccn2)CC1)n1cncn1 (stereo unspecified)
experimental-target: Plasmodium berghei
recorded-endpoint: INHIBITION
measured-result: 10
--
molecule: CN1CCCC1c1cncc(C(=O)NCC2CC2)n1 (stereo unspecified)
experimental-target: Plasmodium berghei
recorded-endpoint: INHIBITION
measured-result: -80
--
molecule: Cc1ccc2c(n1)N(Cc1cccnc1)CCN(C(=O)C1CCC1)C2
experimental-target: Plasmodium berghei
recorded-endpoint: INHIBITION
measured-result: 32.4
--
molecule: CC(C)NC(=O)c1ccc2c(c1)C1(CCN(C(C)C)CC1)C(=O)N2
experimental-target: Plasmodium berghei
recorded-endpoint: INHIBITION
measured-result: -25.1
--
molecule: CN(Cc1nccs1)c1nc(-c2ccccn2)nc2c1CCNCC2
experimental-target: Plasmodium berghei
recorded-endpoint: INHIBITION
measured-result: 13.7
--
molecule: c1ccc(-c2nc3c(c(NCCn4ccnn4)n2)CCNCC3)nc1
experimental-target: Plasmodium berghei
recorded-endpoint: INHIBITION
measured-result: -3.01
--
molecule: CC(C)c1nn(C)c(N(C)C)c1CNCc1ccccc1CO
experimental-target: Plasmodium berghei
recorded-endpoint: INHIBITION
measured-result: -9.05

Ask | Report INHIBITION for "CN(Cc1cccnc1)c1nc(-c2ccccn2)nc2c1CCNCC2" please.
Reply | -10.8

Ask | Report INHIBITION for "c1ccc(-c2nc3c(c(NCCn4cccc4)n2)CCNCC3)nc1" please.
Reply | 66.5

Ask | Report INHIBITION for "c1ccc(-c2nc3c(c(NCCCn4cncn4)n2)CCNCC3)nc1" please.
Reply | 57.3

---

# Test system: Plasmodium berghei
# protocol-text: Screen against P. berghei liver stage (PbLuc), transformed with Luciferase, at 10uM
# Type: functional, HepG2
# condition-parameters: tested at 10 uM
Out of some 69,000 compounds screened, about 8,600 (12%) showed an effect of 50% or more. This excerpt belongs to a sample that is enriched for strong results.
Readings of INHIBITION for the listed compounds
# do not omit the unit; it follows the number

Worked cases, answers included:
compound: CN(CC1CC1)S(=O)(=O)c1ccc(C(F)(F)F)cc1C#N
INHIBITION: 47.2%
--
compound: CCc1nc(CN(C)CC(=O)N(C)C2CC2)cs1
INHIBITION: 42.6%

Ask | Report INHIBITION for "c1ccc2c(c1)CCN2c1nc(N2CCOCC2)c2nn[nH]c2n1" please.
Reply | 39.9%

---

# System: Plasmodium berghei
# protocol-text: Screen against P. berghei liver stage (PbLuc), transformed with Luciferase, at 10uM
# Format: functional, HepG2
# condition-parameters: tested at 10 uM
In all, about 69,000 compounds went through this assay and about 8,600 (12%) showed an effect of 50% or more. Many of the other results were omitted from the sample, so strong results are more common in it than they were.
recorded-endpoint: INHIBITION (%)
// return numeric value only (unit: %, not printed)

Worked cases, answers included:
molecule: CNc1nc(C(=O)N2CCCn3nc(C(=O)N4CCCC4)cc3C2)cs1
unit-symbol: %
measured-result: 26.5

molecule: CCC(NCCn1cc(C)cn1)C(=O)Nc1cc(C)on1 (stereo unspecified)
unit-symbol: %
measured-result: 35.4

molecule: CCCc1n[nH]c(C2CN(CCNS(C)(=O)=O)CCO2)n1 (stereo unspecified)
unit-symbol: %
measured-result: -69

molecule: CS(=O)(=O)Cc1nc(CNc2c(F)cc(F)cc2F)cs1
unit-symbol: %
measured-result: 40.4

molecule: CS(=O)(=O)Cc1nc(CN2CC=C(c3ccccc3)CC2)cs1
unit-symbol: %
measured-result: 27.6

Ask | Report INHIBITION for Cc1cc(NC(=O)C(C)NCCn2cccn2)no1 (stereo unspecified) please.
Reply | 58.9

---

# Tested on: Plasmodium berghei
# protocol-text: Screen against P. berghei liver stage (PbLuc), transformed with Luciferase, at 10uM
# Type: functional, HepG2
# condition-parameters: tested at 10 uM
Out of some 69,000 compounds screened, about 8,600 (12%) showed an effect of 50% or more. The full list was thinned out, with strong results kept by preference.
Consider the cut-off 30%. If the recorded INHIBITION is strictly smaller, the label is t; if not, the label is f.

compound: Cc1cc2ccccc2n1CCC(=O)N1CCCC(O)(CN(C)C)CC1 (configuration not stated)
class-assignment: t
--
compound: Cc1nc[nH]c1-c1nccn1CCN1CCCOC1=O
class-assignment: f
--
compound: COc1ccc(OCc2cc(C(=O)N3CCC(O)CC3)n[nH]2)c(Cl)c1
class-assignment: t
--
compound: O=C(CN(Cc1cccs1)c1ccc(F)cc1)NC1CCOCC1
class-assignment: f
--
compound: CN(C)Cc1ccnc(C2CN(CCc3ccccc3)CCO2)n1 (configuration not stated)
class-assignment: t
--
compound: O=C(c1n[nH]c2c1CN(C1CCOC1)CC2)N1CCOCC1 (configuration not stated)
class-assignment: t
--
compound: NCC1(c2cccc(C(F)(F)F)c2)CCOCC1
class-assignment: t
--
compound: COC1COC2(CCN(Cc3ccccc3Cl)CC2)C1 (configuration not stated)
class-assignment: t
--
compound: N#CC1COCCN1C(=O)c1ccc2[nH]ccc2c1 (configuration not stated)
class-assignment: t
--
compound: O=C(NCCn1nc2ccccn2c1=O)c1sccc1-c1ccccc1
class-assignment: t

Ask | Just wondering, is INHIBITION of "Cc1cccc(CN2CC[C@H]3C[C@H](C)O[C@@H]3C2)n1" below 30%?
Reply | f

Ask | Just wondering, is INHIBITION of "NCC1(c2cccc(F)c2)CCOCC1" below 30%?
Reply | f

Ask | Just wondering, is INHIBITION of CN(C)CC1(O)CCCN(C(=O)Cn2ccc3ccccc32)CC1 (configuration not stated) below 30%?
Reply | f

Ask | Just wondering, is INHIBITION of CCN1CC(C(=O)NCCn2cccc2)CCC1=O (configuration not stated) below 30%?
Reply | f

Ask | Just wondering, is INHIBITION of "CN1CCN(C(=O)Cc2ccc(S(=O)(=O)C(F)F)cc2)CC1" below 30%?
Reply | f

Ask | Just wondering, is INHIBITION of c1cc(CN2CCOC(Cn3cccn3)C2)c2c(c1)OCCO2 (configuration not stated) below 30%?
Reply | t

Ask | Just wondering, is INHIBITION of "Cc1noc(CN2CC=C(c3c[nH]c4ncccc34)CC2)n1" below 30%?
Reply | f

Ask | Just wondering, is INHIBITION of Cc1ccc(CN(CC(=O)NCC2CCOC2)c2ccc(F)cc2)o1 (configuration not stated) below 30%?
Reply | t

Ask | Just wondering, is INHIBITION of "Fc1cccc(CN2C[C@@H]3COC[C@]3(COCc3ccncc3)C2)c1" below 30%?
Reply | f

---

Readings of INHIBITION for the listed molecules
# Test system: Plasmodium berghei
# protocol-text: Screen against P. berghei liver stage (PbLuc), transformed with Luciferase, at 10uM
# Format: functional, HepG2
# condition-parameters: tested at 10 uM
Screen size: about 69,000 compounds; about 8,600 (12%) showed an effect of 50% or more. Only a selection was taken, and strong results are over-represented in it overall.
// return numeric value only (unit: %, not printed)

molecule: Cn1ncc2c1C(COCC1CC1)CN(Cc1ccco1)C2 (centres undefined)
INHIBITION (%): 20.6

molecule: Cc1cnn(CC(C)NCc2ccc(OCc3cccnc3)cc2)c1 (centres undefined)
INHIBITION (%): 58.5

molecule: N#Cc1cccc(N2CCCC3(CNCCO3)C2)n1 (centres undefined)
INHIBITION (%): 51.2

molecule: CC(CNC(=O)c1c[nH]nn1)Oc1cccc(Br)c1 (centres undefined)
INHIBITION (%): -15

molecule: CC(CNC(=O)c1ccncc1F)Oc1ccc(F)cc1 (centres undefined)
INHIBITION (%): 28.2

molecule: Cc1ccc(CN2Cc3nnn(C)c3C(COCC3CC3)C2)o1 (centres undefined)
INHIBITION (%): -14.7

molecule: O=C(c1ncn2c1CNS(=O)(=O)c1ccccc1-2)N1CCCCC1
INHIBITION (%): 7.24

molecule: CN1CCn2c(-c3ccccc3)cnc2C12CCN(CC1CC1)CC2
INHIBITION (%): 29.8

molecule: CN(Cc1ccccc1)CC(C)(C)NC(=O)c1ccc(C(N)=O)cn1
INHIBITION (%): 52.2

molecule: Cc1noc(C)c1CN1Cc2cn(C)nc2C(COCC2CC2)C1 (centres undefined)
INHIBITION (%): 48.6

Ask | Report INHIBITION for CCc1cc(NC(=O)C2CCCN(C(=O)NCC(C)C)C2)[nH]n1 (centres undefined) please.
Reply | 19.3

Ask | Report INHIBITION for "Cc1cnc(CNC(=O)N(Cc2ccccc2)CC(C)(C)O)s1" please.
Reply | 15.7
